Where do the numbers come from? From patent US20240124504A1.

assayed-system: CDK12 (aa686-1082)/cyclinK complex (Homo sapiens)
Construct: A CDK12 (aa686-1082)/cyclinK complex (50 nM)
Sequence (Q9NYV4 686-1082, species assumed): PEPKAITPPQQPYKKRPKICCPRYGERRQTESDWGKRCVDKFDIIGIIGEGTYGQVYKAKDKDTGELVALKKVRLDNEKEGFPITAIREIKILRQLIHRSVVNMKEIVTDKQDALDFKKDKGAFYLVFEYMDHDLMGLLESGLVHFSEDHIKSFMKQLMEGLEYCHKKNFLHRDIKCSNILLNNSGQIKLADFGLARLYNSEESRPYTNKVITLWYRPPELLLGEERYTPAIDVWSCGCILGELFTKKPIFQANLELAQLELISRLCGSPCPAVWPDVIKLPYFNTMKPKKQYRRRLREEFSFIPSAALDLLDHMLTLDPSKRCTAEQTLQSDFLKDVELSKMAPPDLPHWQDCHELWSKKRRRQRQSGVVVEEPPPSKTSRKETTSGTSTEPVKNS
Sequence (O75909 whole entry partner, species assumed, the tested form may be a part): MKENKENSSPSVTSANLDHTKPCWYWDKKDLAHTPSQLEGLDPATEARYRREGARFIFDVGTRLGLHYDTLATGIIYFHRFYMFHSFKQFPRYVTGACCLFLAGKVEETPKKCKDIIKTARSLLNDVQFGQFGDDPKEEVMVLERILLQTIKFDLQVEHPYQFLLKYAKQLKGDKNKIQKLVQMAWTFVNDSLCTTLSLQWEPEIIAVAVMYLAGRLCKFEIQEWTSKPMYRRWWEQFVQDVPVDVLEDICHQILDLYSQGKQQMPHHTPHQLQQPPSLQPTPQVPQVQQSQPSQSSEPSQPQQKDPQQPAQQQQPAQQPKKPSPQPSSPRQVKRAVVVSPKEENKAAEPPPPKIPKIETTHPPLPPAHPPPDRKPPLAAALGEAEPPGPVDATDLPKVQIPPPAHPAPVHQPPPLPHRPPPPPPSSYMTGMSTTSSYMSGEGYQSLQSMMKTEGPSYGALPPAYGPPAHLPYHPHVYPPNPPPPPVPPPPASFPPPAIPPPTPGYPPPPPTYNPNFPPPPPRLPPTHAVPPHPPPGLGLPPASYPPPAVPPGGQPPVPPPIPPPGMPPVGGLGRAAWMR
protocol-notes: In-vitro enzymatic inhibitory activity testing, CDK12 inhibition assay (Caliper EZ Reader II)
Assay type: biochemical
measurement-context: CDK12/cyclinK 50 nM, 180 min at 27° C.; read-out: CDK12 IC50
quantity-kind: IC50

[Q] // returns reported IC50 for input CP(C)(=O)c1cccc2c(-c3nc(NCCCO)ncc3C(F)(F)F)c[nH]c12
[A] > 50 µM

[Q] // returns reported IC50 for input CC(CO)CNc1ncc(C(F)(F)F)c(-c2c[nH]c3c(P(C)(C)=O)cccc23)n1 (single isomer, unassigned) [Compound 150]
[A] > 50 µM

[Q] // returns reported IC50 for input CC1(C)COCC(Nc2ncc(C(F)(F)F)c(-c3c[nH]c4nc(C#N)ccc34)n2)CN1 (stereo not drawn) [Compound 62]
[A] 5 to 50 µM

[Q] // returns reported IC50 for input CP(C)(=O)c1cccc2c(-c3nc(NCC4(O)CCCC4)ncc3C(F)(F)F)c[nH]c12
[A] > 50 µM

[Q] // returns reported IC50 for input CP(C)(=O)c1cccc2c(-c3nc(NC4(CO)COC4)ncc3C(F)(F)F)c[nH]c12
[A] > 50 µM

[Q] // returns reported IC50 for input CN(C)[C@H]1CC[C@H](Nc2ncc(C(F)(F)F)c(-c3c[nH]c4c(P(C)(C)=O)cccc34)n2)C1
[A] 0.2 to 5 µM

[Q] // returns reported IC50 for input CP(C)(=O)c1cccc2c(-c3nc(N[C@H]4CCC[C@@H]4O)ncc3C(F)(F)F)c[nH]c12
[A] 5 to 50 µM

[Q] // returns reported IC50 for input C[C@H](O)CNc1ncc(C(F)(F)F)c(-c2c[nH]c3c(P(C)(C)=O)cccc23)n1
[A] > 50 µM

[Q] // returns reported IC50 for input CP(C)(=O)c1cccc2c(-c3nc(NC4(CO)CC4)ncc3C(F)(F)F)c[nH]c12
[A] > 50 µM
